# key: entry, value: Disease Control (%) SEPTTR-184 1DP
- Tested on: Zymoseptoria tritici (SEPTTR-184)
- testName: Cyp51 dsRNA tile (fragment) foliar application bioassay (Example 6)
- Assay type: in vivo
- conditionDetails: 1 day protectant; rate 200 ppm; average of 2 trials
Entry rule: numbers only, all in %.

# count of solved cases: 5
[[record]]
molecule = "MgCyp51-T7: dsRNA tile of Zymoseptoria tritici Cyp51, 111 bp, location 1490-1600 (nucleic acid, listed as Zymoseptoria tritici, long dsRNA tile, purified, chemistry not given here) CGACGATGGTTCGCGATTTCAAGTTTTACAATGTGGATGGCAGCGACAACGTGGTGGGTACGGATTACAGCAGTTTGTTCAGCCGGCCGCTGTCGCCGGCAGTAGTAAAGT"
measured = 70

[[record]]
molecule = "MgCyp51-T4: dsRNA tile of Zymoseptoria tritici Cyp51, 178 bp, location 647-824 (nucleic acid, listed as Zymoseptoria tritici) AGGGCTTCGACTCGTCTTTCGCGGACCTCTACCACTACCTCGATATGGGATTCACACCGATCAACTTTATGCTTCCGTGGGCGCCCCTTCCCCAGAACCGACGCCGCGATTATGCGCAGAAGAAGATGTCCGAGACATACATGTCGATCATTCAGAAGAGACGAGAGTCCAAAACGGG"
measured = 80

[[record]]
molecule = "MgCyp51-T13: dsRNA tile of Zymoseptoria tritici Cyp51, 119 bp, location 1517-1635 (nucleic acid, listed as Zymoseptoria tritici, long dsRNA tile, purified, chemistry not given here) ACAATGTGGATGGCAGCGACAACGTGGTGGGTACGGATTACAGCAGTTTGTTCAGCCGGCCGCTGTCGCCGGCAGTAGTAAAGTGGGAGAGGAGGGAGGAGAAGGAGGAGAAGAACTGA"
measured = 74

[[record]]
molecule = "MgCyp51-T6: dsRNA tile of Zymoseptoria tritici Cyp51, 280 bp, location 881-1160 (nucleic acid, listed as Zymoseptoria tritici) ATGCCATTCCCGACAAGGAGATTGCTCATATGATGATTGCGCTGCTCATGGCCGGCCAGCACTCTTCATCTGCGACCGAGTCCTGGATCACTCTCCGCCTCGCATCCCGCCCCGACATCCAAGACGAACTCCTCCAAGAACAAAAGGATATGCTCGGTGTGAACGCCGACGGCAGTATCAAGGAGCTCACATACGCCAACCTCTCGAAACTCACCCTCCTCAATCAAGTCGTCAAAGAAACCCTTCGTATTCACGCTCCAATCCACTCCATTCTGCGCAA"
measured = 74

[[record]]
molecule = "MgCyp51-T3: dsRNA tile of Zymoseptoria tritici Cyp51, 230 bp, location 450-679 (nucleic acid, listed as Zymoseptoria tritici) CGTCAAGTACGGCCTCACAACCTCTGCCCTCCAGTCCTACGTGACCTTGATCGCCGCCGAGACCCGCCAGTTCTTCGACCGCAACAACCCTCATAAGAAGTTCGCATCGACCAGCGGCACGATCGATCTCCCACCAGCCCTCGCCGAACTTACGATCTATACTGCCAGCCGATCATTGCAAGGAAAGGAAGTCCGCGAGGGCTTCGACTCGTCTTTCGCGGACCTCTACC"
measured = 74


## Input Tell me the measured Disease Control (%) SEPTTR-184 1DP of MgCyp51-T5: dsRNA tile of Zymoseptoria tritici Cyp51, 133 bp, location 1316-1448 (nucleic acid, listed as Zymoseptoria tritici) AATACAAGCACCTGTCCCCGACGACTGCCCTAGGAAGCATCGCCGAGGAGAAAGAAGACTATGGCTACGGCCTGGTAAGCAAGGGCGCGGCGTCGCCATACTTACCCTTTGGTGCGGGACGACACAGATGTAT , please.
## Output 77

## Input Would you mind telling me what Disease Control (%) SEPTTR-184 1DP value was observed for YFP: non-target dsRNA control (YFP, yellow fluorescent protein coding region) (nucleic acid, double-stranded RNA; synthesized partial coding region) TGTAGAAATCCTTCAGCTCGGGGCCGTACTTGGCGAAGCACTGGGCGCCGTAGGTCAGGGTGGTCACCAGGGTGCTCCAGGGCACGGGCACATCGCCGGTGGTGCAGATGAACTGGGCATCCACCTTGCCCACGCTGGCATCGCCGTAGCCCTTGCCGCGGATGCTGAAGGTGTGGCCATCCACATTGCCCTCCATCTCCACCACGTAGGGGATCTTGCCGTGGAACAGCAGGGCGCCGCTGGAGCCCAT ?
## Output 27

## Input Can you share its Disease Control (%) SEPTTR-184 1DP? I mean this molecule: MgCyp51-T9: dsRNA tile of Zymoseptoria tritici Cyp51, 172 bp, location 1-172 (nucleic acid, listed as Zymoseptoria tritici, double-stranded RNA) ATGGGTCTCCTCCAGGAAGTCCTCGCGCAGTTCGACGCGCAATTCGGCCAGACCAGCCTCTGGAAACTTGTCGGACTTGGATTCCTCGCCTTCAGCACGCTCGCCATCCTCCTCAATGTCCTCTCACAACTTCTCTTCCGTGGCAAGTTGTCCGATCCGCCACTCGTATTCC
## Output 76

## Input I would be grateful if you could share the reported Disease Control (%) SEPTTR-184 1DP for MgCyp51-T12: dsRNA tile of Zymoseptoria tritici Cyp51, 138 bp, location 1377-1514 (nucleic acid, listed as Zymoseptoria tritici) TGGCTACGGCCTGGTAAGCAAGGGCGCGGCGTCGCCATACTTACCCTTTGGTGCGGGACGACACAGATGTATCGGCGAGCAATTCGCGTACGTGCAATTGCAGACCATTACAGCGACGATGGTTCGCGATTTCAAGTT .
## Output 64
